System: anti-PTX monoclonal antibody
testSummary: PTX analog interference test (cross reaction rate) on the time-resolved fluorescent immunochromatographic test strip
Format: binding, mouse
testSettings: test concentration 1,000 ng/mL
The following molecules are shown together with reported Cross reaction rate values.
valueType: Cross reaction rate

[
  {
    "molecule": "C/C=C(\\C)C(=O)N[C@@H](c1ccccc1)[C@@H](O)C(=O)O[C@H]1C[C@@]2(O)[C@@H](OC(=O)c3ccccc3)[C@@H]3[C@]4(OC(C)=O)CO[C@@H]4C[C@H](O)[C@@]3(C)C(=O)[C@H](OC(C)=O)C(=C1C)C2(C)C",
    "valueType": "Cross reaction rate",
    "measValue": "<0.04%"
  },
  {
    "molecule": "CC(=O)O[C@H]1C(=O)[C@@]2(C)[C@H]([C@H](OC(=O)c3ccccc3)[C@]3(O)C[C@H](O)C(C)=C1C3(C)C)[C@]1(OC(C)=O)CO[C@@H]1C[C@@H]2O",
    "valueType": "Cross reaction rate",
    "measValue": "<0.01%"
  },
  {
    "molecule": "CC(=O)OC1CC2(O)C(OC(=O)c3ccccc3)C3C4(OC(C)=O)COC4CC(O)C3(C)C(O)C(OC(C)=O)C(=C1C)C2(C)C (centres unmarked) [13-Acetyl-9-dihydrobaccatin III]",
    "valueType": "Cross reaction rate",
    "measValue": "<0.01%"
  },
  {
    "molecule": "CC(=O)O[C@H]1C[C@@]2(O)[C@@H](OC(C)=O)[C@@H]3[C@@]4(CO4)[C@@H](OC(C)=O)C[C@H](OC(C)=O)[C@@]3(C)[C@@H](OC(C)=O)[C@H](OC(C)=O)C(=C1C)C2(C)C [1-Hydroxybaccatin I]",
    "valueType": "Cross reaction rate",
    "measValue": "<0.01%"
  },
  {
    "molecule": "CC(=O)O[C@H]1C(=O)[C@]2(C)[C@@H](O[C@@H]3OC[C@@H](O)[C@H](O)[C@H]3O)C[C@H]3OC[C@@]3(OC(C)=O)[C@H]2[C@H](OC(=O)c2ccccc2)[C@]2(O)C[C@H](OC(=O)[C@H](O)[C@@H](NC(=O)c3ccccc3)c3ccccc3)C(C)=C1C2(C)C",
    "valueType": "Cross reaction rate",
    "measValue": "<1%"
  },
  {
    "molecule": "CC(=O)O[C@@]12CO[C@@H]1C[C@H](O)[C@@]1(C)C(=O)[C@H](O)C3=C(C)[C@@H](OC(=O)[C@H](O)[C@@H](NC(=O)OC(C)(C)C)c4ccccc4)C[C@@](O)([C@@H](OC(=O)c4ccccc4)[C@H]21)C3(C)C",
    "valueType": "Cross reaction rate",
    "measValue": "<1%"
  },
  {
    "molecule": "CC(=O)OC1CC2(OC(C)=O)C(OC(C)=O)C3C4(CO4)C(O)CC(OC(C)=O)C3(C)C(OC(C)=O)C(OC(C)=O)C(=C1C)C2(C)C (centres unmarked)",
    "valueType": "Cross reaction rate",
    "measValue": "<0.01%"
  },
  {
    "molecule": "CC(=O)O[C@@]12CO[C@@H]1C[C@H](O)[C@@]1(C)C(=O)[C@H](O)C3=C(C)[C@@H](O)C[C@@](O)([C@@H](OC(=O)c4ccccc4)[C@H]21)C3(C)C",
    "valueType": "Cross reaction rate",
    "measValue": "<0.01%"
  }
]
